# System: MYLK4
# Assay setup: concentration: 1 μM, replicates: in singlicate; n = 1
Assay metric: %Inh (%)
// units = %; emit number, no label

These recorded examples may help you get a feel for the data.
{"columns": ["Smiles", "Unit label", "%Inh"],
 "data": [
  ["N#Cc1ccc(-c2cc(-c3c[nH]nc3-c3ccccn3)ccn2)cc1", "%", 0],
  ["N#Cc1c(N2CCOCC2)sc(-c2ccn[nH]2)c1-c1ccc(Cl)cc1", "%", 5],
  ["O=C(Nc1n[nH]c2cc(-c3cccc(F)c3)ccc12)C1CC1", "%", 6]
]}

The compound listed as "CN(C(=O)c1ccc(-c2cc(-c3c[nH]nc3-c3ccccn3)ccn2)cc1)C1CCOCC1" shows %Inh equal to 0

%Inh recorded for this compound, "CN1c2ccc(NCc3ccc(F)cc3)cc2-c2c(cnn2C)S1(=O)=O" , is 0

* * *

# Tested on: LIMK2
# Assay setup: concentration: 1 μM, replicates: in singlicate; n = 1
yes if %Inh is below 3%. no if not; exact matches included in no.

Consider the worked cases shown below.
{"columns": ["Compound", "Class name"],
 "data": [
  ["O=c1cc(N2CCOCC2)nc2n(Cc3cccc(Cl)c3Cl)c(C3CC3)nn12 [GSK2358994]", "no"],
  ["O=C(NCCNc1ccnc(Nc2ccc(F)cc2)n1)c1cc2ccccc2s1 [GSK1379874]", "no"],
  ["O=C(Nc1n[nH]c2cc(-c3cccc(F)c3)ccc12)C1CC1 [SB-735464]", "yes"],
  ["COc1ccc(Nc2ncc(C#N)c(Nc3ccccc3C(N)=O)n2)cc1N1CCN(C)CC1.Cl [GSK1558669]", "no"],
  ["COC(=O)Nc1nc2cc(Oc3ccc(NC(=O)Nc4cc(F)ccc4F)cc3)ccc2[nH]1.Cl [GW701424]", "yes"]
]}

*Q* Confirm or reject: %Inh of CNc1ncnc2[nH]ncc12 [SKF-18355] lies strictly below 3%
*A* yes

*Q* hey, is %Inh for Cc1nnc(-c2ccc(C)c(-c3ccc(C(=O)Nc4ccc(NS(C)(=O)=O)cc4)cc3)c2)o1 [GW702865] lower than 3% or not?
*A* yes

*Q* For COc1ccc(Nc2nccc(N3CCC(NC(=O)Nc4cccc(C(C)=O)c4)C3)n2)cc1 (stereo not shown) [GSK1379731] , is the recorded %Inh below the cut-off of 3%?
*A* yes

* * *

# Tested on: PIK3CA;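 also: kd values determined as follow-up on hits from a single-replicate KINOMEscan panel screen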
Assay metric: pKd
Please report pKd as the negative decimal logarithm of the molar concentration, giving only the number.

Record "N#Cc1c(N2CCOCC2)sc(-c2ccn[nH]2)c1-c1ccc(Cl)cc1" has PIK3CA pKd equal to 7.49

* * *

Recorded %Inh values for a group of compounds are listed next.
# System: RSK4(Kin.Dom.2-C-terminal)
# Construct: gene RPS6KA6
# Assay setup: concentration: 1 μM, replicates: in singlicate; n = 1
// return numeric value only (unit: %, not printed)

Measured on RSK4(Kin.Dom.2-C-terminal), "C[C@@H](Oc1cc(-n2cnc3ccc(NC(=O)NC(C)(C)C)cc32)sc1C(N)=O)c1ccccc1Cl" has a documented %Inh of 26

Reported %Inh (RSK4(Kin.Dom.2-C-terminal)) for entry "CN(C(=O)c1ccc(-c2cc(-c3c[nH]nc3-c3ccccn3)ccn2)cc1)C1CCOCC1" is 53

Fill in: RSK4(Kin.Dom.2-C-terminal) %Inh for "O=C(NOCC1CC1)c1ccc(F)c(F)c1Nc1ccc(I)cc1Cl" = 0

"O=C(Nc1n[nH]c2cc(-c3cccc(F)c3)ccc12)C1CC1" tested on RSK4(Kin.Dom.2-C-terminal) gave %Inh: 17

Value (%Inh, RSK4(Kin.Dom.2-C-terminal)) for record "CCn1cnc2c(N)ncnc21" = 26

Item "Cc1cccc(-c2nc(-c3ccc(S(C)(=O)=O)cc3)sc2-c2ccncc2)c1" ; assay system RSK4(Kin.Dom.2-C-terminal); %Inh reported as 15

Entry "CSc1ccc(-c2cc3ncnc(SCC(=O)O)c3s2)cc1" under RSK4(Kin.Dom.2-C-terminal) had %Inh of 19

* * *

Quick reference: %Inh of the listed items.
# Test system: CTK
# Construct: gene MATK
# Assay setup: concentration: 1 μM, replicates: in singlicate; n = 1
Report as: number unit

Below, 3 compounds whose answers are already recorded.
{"columns": ["Compound", "%Inh"],
 "data": [
  ["CC(C)(C)n1cnc2c(N)ncnc21 [SKF-97359]", "21%"],
  ["O=c1cc(N2CCOCC2)nc2n(Cc3cccc(Cl)c3Cl)c(C3CC3)nn12 [GSK2358994]", "0%"],
  ["COc1ccc(Nc2nccc(N3CCC(NC(=O)Nc4cccc(C(C)=O)c4)C3)n2)cc1 (centres unmarked) [GSK1379731]", "0%"]
]}

// compound CN(C(=O)c1ccc(-c2cc(-c3c[nH]nc3-c3ccccn3)ccn2)cc1)C1CCOCC1 [GW810083] , assay CTK, %Inh value: 5%

# %Inh measured on CTK for item COc1ccc(S(=O)(=O)NC2CCN(c3cc(C)nc(Nc4cccc(C#N)c4)n3)CC2)cc1.O=C(O)C(F)(F)F [GSK1653539] = 0%

Record NS(=O)(=O)c1cccc(-c2ccc3nccc(-c4cccc(S(N)(=O)=O)c4)c3c2)c1 [GW867253] / CTK, %Inh recorded as 31%

COC(=O)Nc1nc2cc(Oc3ccc(NC(=O)Nc4cc(F)ccc4F)cc3)ccc2[nH]1.Cl [GW701424] on CTK gives %Inh = 0%

Here COc1ccc(COc2cc(-n3cnc4ccccc43)sc2C(N)=O)cc1 [GSK1024304] was tested on CTK, and its %Inh came to 0%

* * *

# Tested on: MRCKA
# Assay setup: concentration: 1 μM, replicates: in singlicate; n = 1
%Inh values by entry
Provide the reading as a plain figure in %.

{"columns": ["Smiles", "Endpoint result"],
 "data": [
  ["N#Cc1ccc(-c2cc(-c3c[nH]nc3-c3ccccn3)ccn2)cc1", 0],
  ["Cl.Oc1cccc(Nc2ccnc3cc(-c4ccncc4)ccc23)c1", 1],
  ["Nc1nccc(-c2c(-c3ccc(F)cc3)ncn2C2CCN(CC(F)(F)F)CC2)n1", 0],
  ["O=c1cc(N2CCOCC2)nc2n(Cc3cccc(F)c3)ccn12", 0],
  ["Fc1ccc(-c2ncn(CCCN3CCOCC3)c2-c2cccnc2)cc1", 0],
  ["CN(C1=C(c2ccccc2)C(=O)NC1=O)c1ccccc1", 18],
  ["O=C(NCCCN1CCOCC1)c1cccc(Nc2nccc(Nc3ccc(Oc4ccccc4)cc3)n2)c1", 4],
  ["CSc1ccc(-c2cc3ncnc(SCC(=O)O)c3s2)cc1", 8]
]}

Next molecule, please.
Given item "Cc1cccc(-c2nc(-c3ccc(S(C)(=O)=O)cc3)sc2-c2ccncc2)c1" , the value recorded as its %Inh is 0

* * *

Let's look at some compounds and their measured %Inh.
# System: LOK
# Construct: gene STK10
# Assay setup: concentration: 1 μM, replicates: in singlicate; n = 1
Dear colleague, please return just the value in %, with no unit written.

Worked set:
{"columns": ["Smiles", "Assay metric", "Endpoint result"],
 "data": [
  ["Cl.Oc1cccc(Nc2ccnc3cc(-c4ccncc4)ccc23)c1", "%Inh", 31],
  ["Cn1cc(-c2ccc3c(c2)CCN3C(=O)Cc2ccccc2Cl)c2c(N)ncnc21", "%Inh", 99.8],
  ["Fc1ccc(-c2ncn(CCCN3CCOCC3)c2-c2ccccn2)cc1", "%Inh", 8],
  ["O=C(Nc1cccc(-c2nn3ncccc3c2-c2ccnc(Nc3cccc(C(F)(F)F)c3)n2)c1)c1c(F)cccc1F", "%Inh", 96.6],
  ["CCCCCc1nc2c(N)ncnc2n1CCCCC", "%Inh", 14]
]}

The reported %Inh value, LOK, for "Cc1nnc(-c2ccc(C)c(-c3ccc(C(=O)Nc4ccc(NS(C)(=O)=O)cc4)cc3)c2)o1" reads 6

LOK data for "Cc1cccc(-c2nc(-c3ccc(S(C)(=O)=O)cc3)sc2-c2ccncc2)c1" ; its %Inh: 0

Summary: "O=c1cc(N2CCOCC2)nc2n(Cc3cccc(C(F)(F)F)c3)ccn12" , LOK, %Inh = 0

"CN1c2ccc(CNc3ccc(F)cc3)cc2-c2c(cnn2C)S1(=O)=O" tested on LOK gave %Inh: 0

Sample "NS(=O)(=O)CCc1cccc(Nc2nccc(-c3c(-c4cccc(NC(=O)c5c(F)cccc5F)c4)nn4ccccc34)n2)c1" , system: LOK. Its %Inh is 99.4

* * *

# Test system: NEK10
# Assay setup: concentration: 1 μM, replicates: in singlicate; n = 1
Assay metric: %Inh (%)
# value in %; strip the unit string

Some solved entries appear below for comparison.
{"columns": ["Compound", "%Inh, %"],
 "data": [
  ["COc1ccc(CNC(=O)NC2CCN(c3ccnc(Nc4ccc(OC)cc4)n3)C2)cc1 (centres unmarked) [GSK1379727]", 15],
  ["O=c1cc(N2CCOCC2)nc2n(Cc3cccc(F)c3)ccn12 [GSK2297430]", 24],
  ["Fc1ccc(-c2ncn(CCCN3CCOCC3)c2-c2cccnc2)cc1 [SB-211743]", 14],
  ["CN(C(=O)c1ccc(-c2cc(-c3c[nH]nc3-c3ccccn3)ccn2)cc1)C1CCOCC1 [GW810083]", 0]
]}

Entry "COc1cc2c(cc1OCCN1CCN(C)CC1)ncc1c3ccc(C#N)cc3[nH]c21" ; %Inh = 15

Source listed as paper PMC5540273.
